STUDY TARGET: Tubulin (Sus scrofa) (UniProt P02554+P02550)
Sequence (P02550 whole entry, looked up): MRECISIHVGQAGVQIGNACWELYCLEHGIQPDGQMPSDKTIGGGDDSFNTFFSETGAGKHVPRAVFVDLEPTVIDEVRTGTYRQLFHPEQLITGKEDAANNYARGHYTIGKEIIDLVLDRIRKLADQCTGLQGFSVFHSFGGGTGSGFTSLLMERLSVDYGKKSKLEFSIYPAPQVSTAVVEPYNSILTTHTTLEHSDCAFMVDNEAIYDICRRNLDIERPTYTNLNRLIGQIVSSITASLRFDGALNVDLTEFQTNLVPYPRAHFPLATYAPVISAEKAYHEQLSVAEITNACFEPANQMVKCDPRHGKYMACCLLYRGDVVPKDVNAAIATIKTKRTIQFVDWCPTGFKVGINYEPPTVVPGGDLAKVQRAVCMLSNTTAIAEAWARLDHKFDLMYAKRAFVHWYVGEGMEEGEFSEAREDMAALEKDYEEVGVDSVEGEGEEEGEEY
Sequence (P02554 whole entry, looked up): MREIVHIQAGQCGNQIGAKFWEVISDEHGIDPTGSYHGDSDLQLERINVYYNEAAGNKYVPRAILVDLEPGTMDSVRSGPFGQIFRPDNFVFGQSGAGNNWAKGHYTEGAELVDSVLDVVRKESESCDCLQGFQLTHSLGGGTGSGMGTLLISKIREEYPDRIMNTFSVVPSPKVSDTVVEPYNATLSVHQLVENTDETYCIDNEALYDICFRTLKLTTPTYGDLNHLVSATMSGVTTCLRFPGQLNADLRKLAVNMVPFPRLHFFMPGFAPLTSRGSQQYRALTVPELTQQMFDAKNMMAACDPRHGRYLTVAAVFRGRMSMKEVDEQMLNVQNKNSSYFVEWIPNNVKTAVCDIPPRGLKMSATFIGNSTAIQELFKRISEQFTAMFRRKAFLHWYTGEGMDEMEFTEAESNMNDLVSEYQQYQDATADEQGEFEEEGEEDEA
MEASUREMENT PROTOCOL: Displacement of [3H]colchicine from tubulin in pig brain at 10 uM after 16 hrs by scintillation proximity assay
Readings of inhibition for the listed molecules
# answer = value followed by unit

>  <MOLECULE>
C=C1C=CC(=O)[C@@H]2[C@H](Cc3ccc(OCOC)cc3)CC[C@H]12 (racemic)

>  <inhibition>
69.3%

$$$$

Query string: Tell me the measured inhibition of CC=C1C=CC(=O)[C@@H]2[C@H](Cc3ccc(OC)c(O)c3)CC[C@H]12 (racemic) , please.
Result string: 96.1%

Query string: If you can, please state the reported inhibition value of C=C1C=CC(=O)[C@@H]2[C@H](Cc3cc(OC)c(OC)c(OC)c3)CC[C@H]12 (racemic) .
Result string: 8.93%

Query string: Reported inhibition, molecule COc1ccc(C[C@@H]2CC[C@@H]3CC=CC(=O)[C@@H]32)cc1O (racemic) : ____
Result string: 39.2%
